# target system: UniProt P39877
# Sequence (P39877 21-138): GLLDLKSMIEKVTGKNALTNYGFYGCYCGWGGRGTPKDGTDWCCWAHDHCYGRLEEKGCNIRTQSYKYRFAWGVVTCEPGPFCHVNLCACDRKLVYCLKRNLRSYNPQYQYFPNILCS
# test summary: In vitro antiphospholipase activity
# Type: biochemical
# applied conditions: 20 min preincubation, lecithin substrate, pH 7.6; read-out: mean IC50 against hG-V (converted)
Lab note: class by IC50, see group A = under 40 µM, group B = from 40 µM up to 60 µM, group C = 60 µM and over

// query Note: place this compound into its band. Item: Cc1nc2ccccc2c(=O)n1/N=C/N(C)C [Compound 12]
// result group C

// query Note: place this compound into its band. Item: COc1cc(-n2c(C)nc3ccc(F)cc3c2=O)cc(OC)c1OC [Compound 5b]
// result group A

// query Note: place this compound into its band. Item: Cc1nc2ccc(Br)cc2c(=O)n1/N=C/c1ccc(-c2ccccn2)cc1 [Compound 8d]
// result group A

// query Note: place this compound into its band. Item: Cc1nc2ccccc2c(=O)n1/N=C/c1ccc(C#N)cc1 [Compound 8g]
// result group C

// query Note: place this compound into its band. Item: Cc1ccc2nc(SCc3ccc(Cl)cc3)n(-c3ccccc3)c(=O)c2c1 [Compound 15b]
// result group B

// query Note: place this compound into its band. Item: Cc1nc2ccc(Br)cc2c(=O)n1/N=C/c1ccc(-c2ccccc2)cc1 [Compound 8j]
// result group A

// query Note: place this compound into its band. Item: Cc1nc2ccc(Br)cc2c(=O)n1/N=C/c1ccc2ccccc2c1 [Compound 8b]
// result group B

// query Note: place this compound into its band. Item: Cc1nc2ccccc2c(=O)n1/N=C/c1ccc(-c2ccccc2)cc1 [Compound 8i]
// result group C

// query Note: place this compound into its band. Item: Cc1nc2ccccc2c(=O)n1NC(=O)OCC(C)C [Compound 10]
// result group C

// query Note: place this compound into its band. Item: Cc1nc2ccccc2c(=O)n1/N=C/c1ccc(-c2ccccn2)cc1 [Compound 8c]
// result group A

// query Note: place this compound into its band. Item: COc1cc(-n2c(C)nc3ccc(Cl)cc3c2=O)cc(OC)c1OC [Compound 5c]
// result group A

====

Hi! I'm sharing some IC50 results obtained with xanthine oxidase (Homo sapiens, UniProt P47989).
Sequence (P47989 whole entry, species assumed): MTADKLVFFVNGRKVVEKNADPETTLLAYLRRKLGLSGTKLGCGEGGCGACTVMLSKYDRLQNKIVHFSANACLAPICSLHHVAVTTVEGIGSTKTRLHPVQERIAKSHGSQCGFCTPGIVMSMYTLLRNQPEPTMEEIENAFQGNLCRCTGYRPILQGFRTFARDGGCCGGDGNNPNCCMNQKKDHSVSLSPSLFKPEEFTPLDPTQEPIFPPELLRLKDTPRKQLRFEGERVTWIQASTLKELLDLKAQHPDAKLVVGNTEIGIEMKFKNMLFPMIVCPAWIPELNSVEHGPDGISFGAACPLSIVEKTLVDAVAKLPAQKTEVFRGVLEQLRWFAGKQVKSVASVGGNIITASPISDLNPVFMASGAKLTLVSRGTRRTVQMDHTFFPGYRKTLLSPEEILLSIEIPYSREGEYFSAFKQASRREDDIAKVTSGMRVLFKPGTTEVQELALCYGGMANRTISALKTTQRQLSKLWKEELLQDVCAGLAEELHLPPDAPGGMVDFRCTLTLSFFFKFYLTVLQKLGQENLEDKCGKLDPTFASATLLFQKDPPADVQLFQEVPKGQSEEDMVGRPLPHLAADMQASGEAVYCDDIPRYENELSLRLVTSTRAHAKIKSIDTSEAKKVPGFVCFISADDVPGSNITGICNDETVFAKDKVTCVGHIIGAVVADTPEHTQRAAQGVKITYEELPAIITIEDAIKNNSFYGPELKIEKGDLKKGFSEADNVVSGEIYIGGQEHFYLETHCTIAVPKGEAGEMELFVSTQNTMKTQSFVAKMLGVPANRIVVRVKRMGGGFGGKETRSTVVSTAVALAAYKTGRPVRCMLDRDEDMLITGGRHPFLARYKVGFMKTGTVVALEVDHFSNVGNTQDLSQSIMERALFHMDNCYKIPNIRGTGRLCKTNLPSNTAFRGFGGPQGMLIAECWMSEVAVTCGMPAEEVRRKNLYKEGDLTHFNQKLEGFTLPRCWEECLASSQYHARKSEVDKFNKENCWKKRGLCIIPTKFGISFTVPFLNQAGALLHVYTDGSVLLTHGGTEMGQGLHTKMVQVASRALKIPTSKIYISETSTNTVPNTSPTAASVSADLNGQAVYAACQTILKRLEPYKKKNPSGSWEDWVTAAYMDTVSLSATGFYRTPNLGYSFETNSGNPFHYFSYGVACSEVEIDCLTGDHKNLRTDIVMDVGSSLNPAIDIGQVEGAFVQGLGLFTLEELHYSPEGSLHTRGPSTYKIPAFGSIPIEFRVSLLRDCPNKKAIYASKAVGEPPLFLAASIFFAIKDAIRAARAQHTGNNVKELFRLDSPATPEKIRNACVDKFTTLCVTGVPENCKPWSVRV
Give the value, in units of µM, as a plain number.

Examples from the recorded data:
{"compound": "Cc1cccc(C)c1NC(=O)CSc1nc2ccccc2c(=O)n1-c1ccccc1 [Compound 15c]", "IC50 [µM]": 148}
{"compound": "Cc1ccc2nc(SCC(=O)Nc3cccc(C)c3C)n(-c3ccccc3)c(=O)c2c1 [Compound 15f]", "IC50 [µM]": 136}

Now examine the next entry.
// query Please look at "Cc1nc2ccc(Br)cc2c(=O)n1/N=C/c1ccc(-c2ccccc2)cc1" and tell me its recorded IC50 on xanthine oxidase (Homo sapiens, UniProt P47989).
// result 49

====

# target system: Naja mossambica mossambica sPLA2 (NmPLA2)
# test summary: In vitro antiphospholipase activity
# Assay type: biochemical
# applied conditions: 20 min preincubation, lecithin substrate, pH 7.6
// mean IC50 against NmPLA2 lookup, one value per entry
Give the value, in units of µg/mL, as a plain number.

{"compound": "COc1cc(-n2c(C)nc3ccc(Cl)cc3c2=O)cc(OC)c1OC", "meas value": 5.15}
{"compound": "Cc1ccc2nc(SCC(=O)Nc3c(C)cccc3C)n(-c3ccccc3)c(=O)c2c1 [Compound 15d]", "meas value": 8.50}
{"compound": "COc1cc(-n2c(C)nc3ccccc3c2=O)cc(OC)c1OC", "meas value": 6.00}
{"compound": "O=c1c2ccccc2nc(SCc2ccc(Cl)cc2)n1-c1ccccc1 [Compound 15a]", "meas value": 5.40}

Now examine the next entry.
// query Kindly indicate its recorded mean IC50 against NmPLA2. Item: "Cc1nc2ccccc2c(=O)n1/N=C/c1ccc2ccccc2c1"
// result 36.75
